// provenance: PubChem BioAssay AID1117319

Collected pIC50 values appear next to each entry.
# targetUnderTest: Virion infectivity factor (Human immunodeficiency virus type 1 group M subtype B (isolate BH10)) + Virion infectivity factor (Human immunodeficiency virus type 1 group M subtype B (isolate BRU/LAI)) + Virion infectivity factor (Human immunodeficiency virus type 1 group M subtype B (isolate PCV12)) + Virion infectivity factor (Human immunodeficiency virus type 1 group M subtype B (isolate HXB2)) + DNA dC->dU-editing enzyme APOBEC-3G (Homo sapiens) (UniProt P69720+P69721+P69722+P69723+Q9HC16)
# method: HIV-1 Vif–A3G interaction blockers – biochemical, TR-FRET, GST-Vif 1-94, biotin-A3G peptide, dose response retest, primary screen (AID 1117319);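 note: Vif residues 1-94 fused to GST binding biotinylated APOBEC3G peptide 110-148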
# runParameters: TR-FRET GST-Vif / biotin-A3G peptide binding
pIC50: −log10 of the molar value. Records with an inconclusive call do not appear.
measuredAttribute: pIC50

1) Cc1c(N=C2C=C(Br)C(=O)C(Br)=C2)c(=O)n(-c2ccccc2)n1C ... 4.85
2) CCC(=O)NC1=C(Cl)C(=O)C(NC(=O)CC)=C(Cl)C1=O ... 4.64
3) O=C1c2ccccc2C(=O)N1/N=C/c1ccc(O)c(O)c1O ... 5.34
4) COc1cccc(CNCCc2c[nH]c3ccccc23)c1OCc1ccccc1 ... 4.25
5) Oc1c(CN2CCOCC2)cc(CN2CCOCC2)c(O)c1O ... 5.04

* * *

A collection of compounds and their measured pIC50
# targetUnderTest: Virion infectivity factor (Human immunodeficiency virus type 1 group M subtype B (isolate BH10)) + Virion infectivity factor (Human immunodeficiency virus type 1 group M subtype B (isolate BRU/LAI)) + Virion infectivity factor (Human immunodeficiency virus type 1 group M subtype B (isolate PCV12)) + Virion infectivity factor (Human immunodeficiency virus type 1 group M subtype B (isolate HXB2)) + DNA dC->dU-editing enzyme APOBEC-3G (Homo sapiens) (UniProt P69720+P69721+P69722+P69723+Q9HC16)
# method: HIV-1 Vif–A3G interaction blockers – biochemical, TR-FRET, GST-Vif 1-94, biotin-A3G peptide, dose response retest, primary screen (AID 1117319);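 note: Vif residues 1-94 fused to GST binding biotinylated APOBEC3G peptide 110-148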
# runParameters: TR-FRET GST-Vif / biotin-A3G peptide binding
pIC50: −log10 of the molar value. Inconclusive results are not listed.
measuredAttribute: pIC50

1) CN1CCC(N(C)C(=O)COc2ccccc2-c2ccccc2)CC1 ... 4.97
2) O/N=C1\CCC\C1=C/c1ccco1 ... 5.12
3) COc1ccccc1-n1cnc2cc(NCc3cccs3)ccc21 ... 4.08
4) Cc1cccc(NC(=S)NC(=O)/C=C/c2ccco2)c1 ... 4.76
5) O=C1CC(Nc2ccc(N3CCOCC3)cc2)C(=O)N1Cc1ccccc1 (stereo unspecified) ... 5.64
6) COc1ccc(NC(=O)c2cc(-c3ccco3)nc3ccccc23)cc1S(=O)(=O)N1CCOCC1 ... 5.62

* * *

compounds and their reported IC50
# targetUnderTest: Virion infectivity factor (Human immunodeficiency virus type 1 group M subtype B (isolate BH10)) + Virion infectivity factor (Human immunodeficiency virus type 1 group M subtype B (isolate BRU/LAI)) + Virion infectivity factor (Human immunodeficiency virus type 1 group M subtype B (isolate PCV12)) + Virion infectivity factor (Human immunodeficiency virus type 1 group M subtype B (isolate HXB2)) + DNA dC->dU-editing enzyme APOBEC-3G (Homo sapiens) (UniProt P69720+P69721+P69722+P69723+Q9HC16)
# method: HIV-1 Vif–A3G interaction blockers – biochemical, TR-FRET, GST-Vif 1-94, biotin-A3G peptide, dose response retest, primary screen (AID 1117319);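 note: Vif residues 1-94 fused to GST binding biotinylated APOBEC3G peptide 110-148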
# runParameters: TR-FRET GST-Vif / biotin-A3G peptide binding
Results filed as inconclusive are left out.
measuredAttribute: IC50

1. O=C(Nc1ccc(Cl)c(-c2nc3ccccc3[nH]2)c1)c1cccnc1 ... 79.7 µM
2. O=C(O)c1ccc(Sc2nnnn2-c2ccccc2)c([N+](=O)[O-])c1 ... 89.9 µM
3. CC(C)N1C(=O)CC(Nc2ccc(N3CCOCC3)cc2)C1=O (stereo unspecified) ... 2.9 µM
4. CCCOc1ccc(N)cc1N ... 7.66 µM
5. COCOC1CCC2C3CCC4=CC(=O)CCC4=C3C=CC12C (stereo unspecified) ... 23.2 µM
6. COc1ccc2cc(C3C(C#N)=C(N)OC(C)=C3C(C)=O)c(Cl)nc2c1 (stereo unspecified) ... 19.4 µM
7. Cc1ccc(-n2nc(-c3ccc(N)cc3)cc2N)cc1 ... 33.5 µM
8. O=c1cc(O)n(-c2ccc(F)cc2)c(=S)[nH]1 ... 51.5 µM
9. O=C(COC(=O)c1ccccc1)Nc1ncc([N+](=O)[O-])s1 ... 6.6 µM
10. CC(=O)N1CCN(c2nc(-c3ccco3)c3c(c2C#N)CC(C)(C)SC3)CC1 ... 25.3 µM
11. CC1=CC(C)(C)Nc2ccc(OC(=O)c3cccnc3)cc21 ... 30.4 µM

* * *

# targetUnderTest: Virion infectivity factor (Human immunodeficiency virus type 1 group M subtype B (isolate BH10)) + Virion infectivity factor (Human immunodeficiency virus type 1 group M subtype B (isolate BRU/LAI)) + Virion infectivity factor (Human immunodeficiency virus type 1 group M subtype B (isolate PCV12)) + Virion infectivity factor (Human immunodeficiency virus type 1 group M subtype B (isolate HXB2)) + DNA dC->dU-editing enzyme APOBEC-3G (Homo sapiens) (UniProt P69720+P69721+P69722+P69723+Q9HC16)
# method: HIV-1 Vif–A3G interaction blockers – biochemical, TR-FRET, GST-Vif 1-94, biotin-A3G peptide, dose response retest, primary screen (AID 1117319);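 note: Vif residues 1-94 fused to GST binding biotinylated APOBEC3G peptide 110-148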
# runParameters: TR-FRET GST-Vif / biotin-A3G peptide binding
pIC50: −log10 of the molar value. Records with an inconclusive call do not appear.
measuredAttribute: pIC50

1. NC(=O)c1ccc(N2CCN(c3ccc(O)cc3)CC2)c([N+](=O)[O-])c1 ... 5.15
2. O=C(O)c1ccc2c(c1)C1C=CCC1C(c1ccncc1)N2 (stereo unspecified) ... 5.41
3. CCOc1cccc(=O)c2c(C)n(C)c(C)c12 ... 4.94
4. CCN(CC)c1ccc(/C=N/n2c(C)cc(C)cc2=O)cc1 ... 5.78
5. CN1C(=O)/C(=C/c2ccco2)SC1=Nc1cccc(C(=O)O)c1 ... 4.72
6. O=C(O)C1Nc2c(C(=O)N3CCOCC3)cccc2C2C=CCC12 (stereo unspecified) ... 5.70
7. O=S(=O)(O)c1cc(O)c(N=Nc2ccc(O)cc2O)c2ccccc12 ... 5.28
8. CCCCOc1ccccc1C1NC(=O)NC(C)=C1C(=O)OCc1ccco1 (stereo unspecified) ... 4.24
9. Nc1c(C(=O)NC2CC2)sc2nc3c(c(-c4ccco4)c12)CC/C3=C/c1ccco1 ... > 6.71
10. Cc1noc(C)c1COc1ccc(C(=O)OCC(=O)N2c3ccccc3NC(=O)C2(C)C)cc1 ... 4.83
11. CCOC(=O)CNc1ccc2c(c1)OCO2 ... 5.61

* * *

Listed molecules paired with reported IC50
# targetUnderTest: Virion infectivity factor (Human immunodeficiency virus type 1 group M subtype B (isolate BH10)) + Virion infectivity factor (Human immunodeficiency virus type 1 group M subtype B (isolate BRU/LAI)) + Virion infectivity factor (Human immunodeficiency virus type 1 group M subtype B (isolate PCV12)) + Virion infectivity factor (Human immunodeficiency virus type 1 group M subtype B (isolate HXB2)) + DNA dC->dU-editing enzyme APOBEC-3G (Homo sapiens) (UniProt P69720+P69721+P69722+P69723+Q9HC16)
# method: HIV-1 Vif–A3G interaction blockers – biochemical, TR-FRET, GST-Vif 1-94, biotin-A3G peptide, dose response retest, primary screen (AID 1117319);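 note: Vif residues 1-94 fused to GST binding biotinylated APOBEC3G peptide 110-148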
# runParameters: TR-FRET GST-Vif / biotin-A3G peptide binding
Results filed as inconclusive are left out.
measuredAttribute: IC50

1) CN(Cc1cnc2nc(N)nc(N)c2n1)c1ccc(C(=O)NC(CCC(=O)O)C(=O)O)cc1 (stereo unspecified) ... 49.2 µM
2) COC1=C(N)C(=O)c2nc(C)ccc2C1=O ... 18.3 µM
3) O=C(OCC1O[C@@H](OC(=O)c2cc(O)c(O)c(O)c2)[C@@H](OC(=O)c2cc(O)c(O)c(O)c2)[C@@H](OC(=O)c2cc(O)c(O)c(O)c2)[C@@H]1OC(=O)c1cc(O)c(O)c(O)c1)c1cc(O)c(O)c(O)c1 (stereo partly specified) ... < 0.195 µM
4) Cc1ccc(-c2cc(-c3ccc4c(c3)OCO4)c(C#N)c(N)n2)o1 ... 7.11 µM
5) COc1cccc(-c2cc(C(=O)Nc3c(C)n(C)n(-c4ccccc4)c3=O)no2)c1 ... 72.5 µM
6) Nc1ccc(N2CCN(Cc3ccccc3Cl)CC2)c(Cl)c1 ... 85.1 µM
7) CNc1ccc(Br)cc(C(=O)/C=C/c2ccc3c(c2)OCO3)c1=O ... 21.9 µM
8) Cc1c(C)n(C(=O)CSc2nc3ccccc3[nH]2)c2ccccc12 ... 39.7 µM
9) COc1ccc2c(c1)n([O-])c1c([n+]2=O)CCC1 ... 5.16 µM
10) COCCNC(=O)COC(=O)c1[nH]c(C)c(C(C)=O)c1C ... 9.88 µM
11) CSc1ccc(/C=N/Nc2cccc(C(=O)O)c2)cc1 ... 11.2 µM
12) c1cnc(N2CCN(c3cnccn3)CC2)nc1 ... 14.3 µM
13) COc1cccc(CNC(=O)CCNS(=O)(=O)c2cccs2)c1 ... 1.44 µM
14) Cc1cc(C)c2c(=N)c3ccccc3n(CCCCCCCCn3c4ccccc4c(=N)c4c(C)cc(C)nc43)c2n1 ... 1.46 µM
15) CCOc1ccccc1C(=O)NCC(=O)OCC(=O)NCCc1ccc(S(N)(=O)=O)cc1 ... 75.8 µM
16) CCOC(=O)NC1(NC2CCCCC2)Oc2ccccc2O1 ... 7.31 µM
17) Cc1cccc(-n2nc3c(c2NC(=O)c2ccc(Br)o2)CSC3)c1 ... 63.6 µM
18) CCN1CCN(c2cc(N3CCN(C(=O)c4ccco4)CC3)c3c4c(onc24)-c2ccccc2C3=O)CC1 ... 3.06 µM
19) Cc1nc2cc(NC(=O)Nc3ccc(N4CCOCC4)cc3)ccc2n1C ... 99.2 µM
20) O=C1/C(=C\c2ccco2)SC(=S)N1Cc1ccccc1 ... 3.56 µM
21) COc1cc(/C=C2/C(=O)c3cccc([N+](=O)[O-])c3C2=O)c(Br)cc1O ... 32.2 µM
